target: HRV3C (Human rhinovirus 14)
assay comment: HRV3C protease assay (duplex, SAMDI-MS)
Type: biochemical, HRV
stated conditions: HRV3C, 30 mins preincubation, class symbols; read-out: HRV IC50
observation type: IC50

Answered examples (5):
[[record]]
molecule = "Cc1ccc2[nH]c(C(=O)N3CCC4(CC4)C[C@H]3C(=O)N[C@@H](C[C@@H]3CCNC3=O)C(=O)C(=O)NC3CC3)cc2c1 [Compound 146]"
reported = "2000 to 20000 nM"

[[record]]
molecule = "COc1cccc2[nH]c(C(=O)N3C[C@]4(C[C@H]3C(=O)NC(C=O)C[C@@H]3CCCNC3=O)CC4(F)F)cc12 (stereo partly drawn) [Compound 29]"
reported = "20 to 200 nM"

[[record]]
molecule = "COc1cccc2[nH]c(C(=O)N3C[C@H](C(F)(F)F)C[C@H]3C(=O)N[C@@H](C[C@@H]3CCCNC3=O)C(=O)CO)cc12 [Compound 45]"
reported = "2000 to 20000 nM"

[[record]]
molecule = "O=C[C@H](C[C@@H]1CCNC1=O)NC(=O)[C@@H]1[C@H]2CCC[C@H]2CN1C(=O)c1cc2ccccc2[nH]1 [Compound 13]"
reported = "200 to 2000 nM"

[[record]]
molecule = "O=C(NCc1ccccc1)C(=O)[C@H](C[C@@H]1CCNC1=O)NC(=O)[C@@H]1[C@H]2CCC[C@H]2CN1C(=O)c1nc2ccccc2[nH]1 [Compound 35]"
reported = "2000 to 20000 nM"


Input line: Identify IC50 associated with the molecule Cc1cccc2[nH]c(C(=O)N3CCC4(CC4)C[C@H]3C(=O)N[C@@H](C[C@@H]3CCNC3=O)C(=O)C(=O)NC3CC3)cc12 [Compound 169]
Output line: 200 to 2000 nM

---

target: HRV3C (Human rhinovirus 14)
assay comment: HRV3C protease assay (duplex, SAMDI-MS)
Type: biochemical, HRV
stated conditions: HRV IC50, HRV3C, 30 mins preincubation, bound
Items are presented alongside their recorded IC50.

Use these answered entries as a reference point.
[[record]]
compound = "COc1cccc2[nH]c(C(=O)N3C[C@H]4[C@@H]([C@H]3C(=O)N[C@@H](C[C@@H]3CCNC3=O)C(=O)CO)C4(C)C)cc12 [Compound 43]"
observation_type = "IC50"
reported = "> 10 µM"

[[record]]
compound = "COc1cccc2[nH]c(C(=O)N3C[C@@H]4CCC[C@@H]4[C@H]3C(=O)N[C@@H](C[C@@H]3CCNC3=O)C(=O)c3nc4ccccc4[nH]3)cc12 [Compound 92]"
observation_type = "IC50"
reported = "> 10 µM"

[[record]]
compound = "COc1ccc(Cl)c2[nH]c(C(=O)N3C[C@@H]4CCC[C@@H]4[C@H]3C(=O)N[C@@H](C[C@@H]3CCNC3=O)C(=O)CO)cc12 [Compound 89]"
observation_type = "IC50"
reported = "> 10 µM"

[[record]]
compound = "COCC(=O)[C@H](C[C@@H]1CCNC1=O)NC(=O)[C@@H]1[C@H]2CCC[C@H]2CN1C(=O)c1cc2c(OC)cccc2[nH]1 [Compound 71]"
observation_type = "IC50"
reported = "> 10 µM"

[[record]]
compound = "COc1cccc2[nH]c(C(=O)N3CCC4(CC4)C[C@H]3C(=O)N[C@@H](C[C@@H]3CCCNC3=O)C(=O)CO)cc12 [Compound 44]"
observation_type = "IC50"
reported = "> 10 µM"

[[record]]
compound = "COc1cccc2[nH]c(C(=O)N3C[C@@H]4CCC[C@@H]4[C@H]3C(=O)N[C@@H](C[C@@H]3CCNC3=O)C(=O)c3nc4ccccc4o3)cc12 [Compound 75]"
observation_type = "IC50"
reported = "> 10 µM"

[[record]]
compound = "O=C1NCC[C@H]1C[C@H](NC(=O)[C@@H]1[C@H]2CCC[C@H]2CN1C(=O)c1nc2c(Cl)ccc(Cl)c2[nH]1)C(=O)CO [Compound 139]"
observation_type = "IC50"
reported = "> 10 µM"

[[record]]
compound = "COc1nccc2[nH]c(C(=O)N3C[C@@H]4CCC[C@@H]4[C@H]3C(=O)N[C@@H](C[C@@H]3CCNC3=O)C(=O)CO)cc12 [Compound 93]"
observation_type = "IC50"
reported = "> 10 µM"

[[record]]
compound = "O=C1NCC[C@H]1C[C@H](NC(=O)[C@@H]1[C@H]2CCC[C@H]2CN1C(=O)c1cc2c(Cl)ccc(Oc3ccccc3)c2[nH]1)C(=O)CO [Compound 137]"
observation_type = "IC50"
reported = "> 10 µM"

[[record]]
compound = "COc1cccc2[nH]c(C(=O)N3C[C@@H]4CCC[C@@H]4[C@H]3C(=O)N[C@@H](C[C@@H]3CCNC3=O)C(=O)CO)c(F)c12 [Compound 151]"
observation_type = "IC50"
reported = "> 10 µM"


Proceeding to the next compound to report its IC50.
Input line: Give HRV3C (Human rhinovirus 14) IC50 for the following compound: O=C(NCc1ccccc1)C(=O)[C@H](Cc1cc[nH]n1)NC(=O)[C@@H]1CC2(CC2)CN1C(=O)c1cc2ccccc2[nH]1 [Compound 96]
Output line: > 10 µM

These measurements were taken from patent US11952365B2.
